These data points were gathered from the supplement of paper PMC4862054.

# Test system: HDQ-P1
# assay_notes: normalised viability (% of control), CellTiter-Blue; higher = more viable cells (about 100 = DMSO control)
# protocol_conditions: incubation time: 72 h
observable: normalised viability (%)
Output spec: scalar in %, unitless text.

O=C(NC[C@H](O)CO)c1ccncc1Nc1ccc(I)cc1F (300 nM) :: 57.6
Cc1c(CN2CCN(C(=O)[C@H](C)O)CC2)sc2c(N3CCOCC3)nc(-c3cnc(N)nc3)nc12 [GDC-0980] (300 nM) :: 29.7
O=S(=O)(c1cccc2cnccc12)N1CCCNCC1 [Fasudil] (300 nM) :: 90.9

Recorded normalised viability (compound Nc1ccccc1NC(=O)c1ccc(CNc2nccc(-c3cccnc3)n2)cc1 [Mocetinostat] (300 nM) ): 57.8

normalised viability reading for CC[C@@]1(O)C(=O)OCc2c1cc1n(c2=O)Cc2cc3c(CN(C)C)c(O)ccc3nc2-1 [Topotecan] (30 nM) : 82.3

Entry CCC/C=C/C=C/C(=O)O[C@H]1/C(=C/C(=O)OC)C[C@H]2C[C@H]([C@@H](C)O)OC(=O)C[C@H](O)C[C@@H]3C[C@H](OC(C)=O)C(C)(C)[C@](O)(C[C@@H]4C/C(=C/C(=O)OC)C[C@H](/C=C/C(C)(C)[C@]1(O)O2)O4)O3 [Bryostatin 1] (3 nM) ; normalised viability = 78.6

Field normalised viability (entry O=C(Nc1c[nH]nc1-c1nc2ccc(CN3CCOCC3)cc2[nH]1)NC1CC1 [AT9283] (300 nM) ) reads 61.1

Sure, the documented normalised viability for Nc1nc(=O)c2c([nH]1)NCC(CNc1ccc(C(=O)N[C@@H](CCC(=O)O)C(=O)O)cc1)N2C=O (mixture of isomers) [Folinic acid] (29.7 nM) is 140

Record Cc1cccc(-c2nn3c(c2-c2ccnc4ccc(C(N)=O)cc24)CCC3)n1 (30 nM) , field normalised viability: 100

###

Form field: normalised viability (one value per entry).
# Tested on: BT-474
# assay_notes: normalised viability (% of control), CellTiter-Blue; higher = more viable cells (about 100 = DMSO control)
# protocol_conditions: 1000 nM; incubation time: 72 h
Express the reported value numerically, then name its unit.

Study these solved cases before continuing.
Cc1ccc(Nc2nccc(N(C)c3ccc4c(C)n(C)nc4c3)n2)cc1S(N)(=O)=O :: 109%
CS(=O)(=O)N1CCN(Cc2cc3nc(-c4cccc5[nH]ncc45)nc(N4CCOCC4)c3s2)CC1 :: 41.3%
CO[C@@H](C(=O)N1Cc2[nH]nc(NC(=O)c3ccc(N4CCN(C)CC4)cc3)c2C1)c1ccccc1 :: 88.3%
C[C@]12O[C@H](C[C@]1(O)CO)n1c3ccccc3c3c4c(c5c6ccccc6n2c5c31)CNC4=O :: 69%

Okay, now this molecule:
The value of normalised viability recorded for `O=C1c2c(O)ccc(O)c2C(=O)c2c(NCCNCCO)ccc(NCCNCCO)c21` when tested on BT-474 reads 42%

###

# Test system: HCC1143
# assay_notes: normalised response (% of control), CellTiter-Glo; higher = more viable cells (100 = DMSO, 0 = benzethonium chloride kill control)
# protocol_conditions: incubation time: 72 h
Entries annotated with measured normalised response
Enter your answer as a number in %; do not include the unit.

Study these solved cases before continuing.
COc1cc(CCc2cc(NC(=O)c3ccc(N4CC(C)NC(C)C4)cc3)n[nH]2)cc(OC)c1 (stereo unspecified) [AZD4547] (1 nM) :: 97
CS(=O)(=O)N1CCN(Cc2cc3nc(-c4cccc5[nH]ncc45)nc(N4CCOCC4)c3s2)CC1 [Pictilisib] (10 nM) :: 99.8
O=S(=O)(c1cccc2cnccc12)N1CCCNCC1 [Fasudil] (50 nM) :: 102
COc1ccc(-c2cc3c(C)nc(N)nc3n([C@H]3CC[C@H](OCCO)CC3)c2=O)cn1 (1 nM) :: 88.6
Cc1c(CN2CCN(C(=O)[C@H](C)O)CC2)sc2c(N3CCOCC3)nc(-c3cnc(N)nc3)nc12 [GDC-0980] (10 nM) :: 106

Looking up CC[C@@]1(O)C(=O)OCc2c1cc1n(c2=O)Cc2cc3c(CN(C)C)c(O)ccc3nc2-1 [Topotecan] (10 nM) , I see its normalised response listed as 93.9

Reported normalised response of C[C@]12C=CC(=O)C=C1CC[C@@H]1[C@@H]2[C@@H](O)C[C@@]2(C)[C@H]1CC[C@]2(O)C(=O)CO [Prednisolone] (10 nM) : 100

normalised response in this record for Cc1cccc(-c2nn3c(c2-c2ccnc4ccc(C(N)=O)cc24)CCC3)n1 [Galunisertib] (1 nM) : 111

Short answer for CO[C@@H](C(=O)N1Cc2[nH]nc(NC(=O)c3ccc(N4CCN(C)CC4)cc3)c2C1)c1ccccc1 [Danusertib] (1 nM) : normalised response was 91.5

Value of normalised response reported for the compound O=C(NC[C@H](O)CO)c1ccncc1Nc1ccc(I)cc1F [Pimasertib] (10 nM) is 94.2

For reference, reported normalised response for O=C(Nc1c[nH]nc1-c1nc2ccc(CN3CCOCC3)cc2[nH]1)NC1CC1 [AT9283] (0.1 nM) stands at 97
